molecular target: T1, human HGF (human, UniProt P14210 32-728); experiment: SPR (ProteOn)
T1 construct: also called hepatocyte growth factor
T1 sequence (P14210 32-728 limits assumed): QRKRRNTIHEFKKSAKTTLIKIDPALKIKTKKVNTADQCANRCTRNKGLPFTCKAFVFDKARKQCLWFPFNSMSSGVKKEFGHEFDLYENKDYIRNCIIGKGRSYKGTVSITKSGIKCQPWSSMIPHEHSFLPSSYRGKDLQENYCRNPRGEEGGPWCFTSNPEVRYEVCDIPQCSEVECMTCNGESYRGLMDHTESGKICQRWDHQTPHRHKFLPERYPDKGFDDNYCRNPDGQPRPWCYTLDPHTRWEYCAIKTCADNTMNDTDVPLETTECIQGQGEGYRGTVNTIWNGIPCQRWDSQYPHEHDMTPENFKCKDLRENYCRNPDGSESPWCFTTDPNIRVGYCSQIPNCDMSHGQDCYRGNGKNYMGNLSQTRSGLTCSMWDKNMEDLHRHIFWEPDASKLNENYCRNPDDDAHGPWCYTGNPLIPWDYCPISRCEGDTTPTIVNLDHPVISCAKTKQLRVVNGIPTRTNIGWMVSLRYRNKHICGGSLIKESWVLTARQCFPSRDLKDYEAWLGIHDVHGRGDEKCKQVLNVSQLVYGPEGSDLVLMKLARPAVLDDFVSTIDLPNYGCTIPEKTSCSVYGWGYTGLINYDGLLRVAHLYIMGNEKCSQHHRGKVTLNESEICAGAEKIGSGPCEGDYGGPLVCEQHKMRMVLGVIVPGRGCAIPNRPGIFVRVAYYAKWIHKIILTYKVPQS
observable: binding result

{"binder": "Protein #31 (designed binder) MRGSHHHHHHGSDLGKKLLEAARAGQDDEVRILMANGADVNAVDAWGDTPLHLAASIGHLEIVEVLLKNGADVNAADYYGDTPLHLAASAGHLEIVEVLLKYGADVNAQDDNGNTPLHLAANTGRLEIVEVLLKHGADVNAQDKFGKTAFDISIDNGNEDLAEILQKAA", "observable": "binding result", "reportedValue": "binds"}
{"binder": "Protein #36 (designed binder) MRGSHHHHHHGSDLGKKLLEAARAGQDDEVRILMANGADVNANDSSGLTPLHLAAFYGHLEIVEVLLKYGADVNADDDWGHTPLHLAAHYGHLEIVEVLLKHGADVNAIDTRGLTPLHLAAIAGHLEIVEVLLKYGADVNAQDKFGKTAFDISIDNGNEDLAEILQKAA", "observable": "binding result", "reportedValue": "binds"}
{"binder": "Protein #30 (designed binder) MRGSHHHHHHGSDLGKKLLEAARAGQDDEVRILMANGADVNTHDNFGDTPLHLAASIGHLEIVEVLLKHGADVNAFDSYGDTPLHLAASSGHLEIVEVLLKYGADVNALDYNGNTPLHLAANSGRLEIVEVLLKHGADVNAQDKFGKTAFDISIDNGNEDLAEILQKAA", "observable": "binding result", "reportedValue": "binds"}
